Tested on: HOP-62 NSCLC
ASSAY PROCEDURE: NCI-60 one-dose screen, 48 h (100 = growth as untreated, 0 = no growth, -100 = all killed)
COND: 10 µM unless noted
About 83,000 compounds went through this panel and 20% of them were active in at least one assay; those are over-represented in the sample as a whole.
Rule: growth below 80% gives yes (1), anything at or above gives no (0).

COc1cc(NC(=O)C2=C(C)NC(C)=C(C(=O)Nc3cc(OC)c(Cl)cc3OC)C2c2cccc([N+](=O)[O-])c2)c(OC)cc1Cl ... yes (1)
CC(C)=C1C=C2CC[C@@H]3[C@](C)(CCC[C@@]3(C)C(=O)O)[C@H]2CC1 ... no (0)
N#Cc1c2ccccc2nc2ccccc12 ... no (0)
COc1cc([C@@H]2c3cc4c(cc3[C@H](OC3OC5COC(c6ccccc6)OC5C(O)C3O)[C@H]3COC(=O)[C@H]23)OCO4)cc(OC)c1OC (some centres not stated) ... yes (1)
CN1CSC(=S)N(Cc2ccccc2)C1 ... no (0)
Nc1cc(-c2ccccc2)ccc1O ... no (0)

query: Is the reported growth for Cc1cc2cccnc2c2ncccc12 strictly below 80%?
result: yes (1)

query: // next record c1ccc(C2NCCNC2c2ccccc2)cc1 (configuration not stated)
result: no (0)

query: Would you mind doing CCCOS(=O)(=O)c1ccccc1 as well?
result: no (0)

query: What do you get for O=C(c1ccccc1)c1cc2ccccc2oc1=O ?
result: no (0)

query: Now the compound CCCCCCCCCCCCCCCC[N+]1(C)CCCC1c1cccnc1 (configuration not stated)
result: yes (1)

query: Next entry: COc1cc(OC)c(/C=C/c2c3ccccc3cc[n+]2C)c(OC)c1
result: yes (1)

query: Next entry: CCCCCCCCCCCCNCCCc1ccccc1
result: no (0)

query: Query Fc1ccc(NCCS)cc1 next
result: no (0)

query: Try this compound next: COc1ccc(NC(=O)/C(=C/N2C(=O)/C(=C/c3ccc(OC)c(OC)c3)NC2=S)C(C)=O)cc1
result: yes (1)

query: // next record COC1CC(C)C(OC)c2cc(O)cc(c2O)NC(=O)/C(C)=C/C=C\C(C)C(OC(N)=O)/C(C)=C\C(C)C1OC (configuration not stated)
result: yes (1)

query: Moving on to the next compound: S=C(SSC(=S)N1CCOCC1)N1CCOCC1
result: no (0)

query: Next entry: CN(C)c1ccc(/C=C/c2nccc3ccccc23)cc1
result: no (0)

query: Proceed to CCc1cccc(CC)c1N1C(=O)C=CC1=O
result: no (0)

query: Please do the same for O=[N+]([O-])c1cc(-c2ccccc2)c(O)c([N+](=O)[O-])c1 as well.
result: no (0)

query: Note, next up: CCCCCC[C@@H](O)C/C=C\CCCCCCCC(=O)OCCOC
result: no (0)

###

Tested on: MDA-MB-435 melanoma
ASSAY PROCEDURE: NCI-60 one-dose screen, 48 h
COND: 10 µM unless noted
About 83,000 compounds went through this panel and 20% of them were active in at least one assay; those are over-represented in the sample as a whole. Activity calls are given as the source filed them. How the source made its calls: active means growth percent below 10; inactive means the rest.
I would appreciate it if you answered using one of these outcomes: active, inactive

CCCCCCCCCCCCN1C(C)=CS/C1=C\C=C\c1scc(C)[n+]1CCCCCCCCCCCC ... inactive
Cc1ccc(/C=C2\CNC/C(=C\c3ccc(C)cc3)C2=O)cc1 ... active
N#CC(I)CS(=O)(=O)c1ccccc1 (stereo unspecified) ... inactive
C/C(=N\NC(=S)N1CC2CCC(CC2)C1)c1ccccn1 ... inactive
O=C(CCl)N(c1ccccc1)c1ccccc1 ... inactive

Note: attention shifts to another entry.
query: Query: recorded result category for CCOc1ccc2c(c1)/C(=C\C=C\C1CC(C)C3CC(OCC)CCC3N1CC)CC(C)N2CC (stereo unspecified) in this test
result: active

###

Attribute: growth
Tested on: SF-268 CNS
ASSAY PROCEDURE: NCI-60 one-dose screen, 48 h (100 = growth as untreated, 0 = no growth, -100 = all killed)
COND: 10 µM unless noted
About 83,000 compounds went through this panel and 20% of them were active in at least one assay; those are over-represented in the sample as a whole. *1 amine or outer side, *2 acyl side, *3 side chain or, on linkers, in order; H or OH if unused. Where a SMILES comes first, the peptide text is derived from it. Bridges are numbered along the chain shown (N, C = ends). Roman numbers before positions name the chains, in order. [ ]: non-standard residue; d: D form. Actinocin(1to9) = Cc1c2oc3c(C)ccc(C(=O)[*:2])c3nc-2c(C(=O)[*:1])c(N)c1=O; NMeV = CN[CH](C(=O)O)C(C)C; Sar = CNCC(=O)O
Entry rule: numbers only, all in %.

Recorded results for 6 compounds are shown here.
COc1cc(NC(=O)C2=C(C)NC(C)=C(C(=O)Nc3cc(OC)c(Cl)cc3OC)C2c2cccc([N+](=O)[O-])c2)c(OC)cc1Cl ... 39.3
[Cl-].[Rh+3].c1ccc(-c2ccnc3c2ccc2c(-c4ccccc4)ccnc23)cc1.c1ccc(-c2ccnc3c2ccc2c(-c4ccccc4)ccnc23)cc1.c1ccc(-c2ccnc3c2ccc2c(-c4ccccc4)ccnc23)cc1 ... 95
C/C=C/c1cc2c(c(=O)o1)C(=O)[C@@H](O)[C@H](C)O2 ... 88.4
CC/C(=C(/CC)c1ccc(O)cc1)c1ccc(O)cc1 ... 63.9
c1ccc(C2NCCNC2c2ccccc2)cc1 (stereo unspecified) ... 101
CC1(O)CCCCCC1 ... 101

query: Fill in: growth of Clc1ccc(Cc2nc3ccccc3s2)cc1 is ___
result: 88.5

query: Would you mind doing Oc1ccc(Nc2ccc3ccccc3c2)cc1 as well?
result: 50.4

query: # repeat for CC(C)N=C(N)/N=C(\N)Nc1ccc2ccc3ccccc3c2c1
result: -64.7

query: Okay, and CN(C)c1ccc(C(C#N)(c2ccccc2)c2ccc(N(C)C)cc2)cc1 ?
result: 58.9

query: Okay, and CCC(C)C1NC(=O)C(NC(=O)c2c3nc4c(C(=O)NC5C(=O)NC(C(C)CC)C(=O)N6CCCC6C(=O)N(C)CC(=O)N(C)C(C(C)C)C(=O)OC5C)ccc(C)c4oc-3c(C)c(=O)c2N)C(C)OC(=O)C(C(C)C)N(C)C(=O)CN(C)C(=O)C2CCCN2C1=O (stereo unspecified) (I: TIP[Sar][NMeV] / II: TIP[Sar][NMeV]; ester I:1-I:C, II:1-II:C; linker I:N-II:N via Actinocin(1to9); configuration not given here) ?
result: -11.7

query: Here is the next compound: CCc1cccc(CC)c1N1C(=O)C=CC1=O
result: 97.6

query: What do we get for O=[N+]([O-])/C(=C/c1ccccc1)c1ccccc1 ?
result: 106

query: Same for CCCC[n+]1c(/C=C\c2c(OC)cc(OC)cc2OC)ccc2ccccc21
result: 22

query: Quick one: O=C(O)c1cc2c(s1)C(=O)c1sccc1C2=O
result: 45.2

query: // next record O=C1C=CC(=O)N1C1CCCCCCCCCCC1
result: 100

query: Note, next up: CCCOC(=O)c1nc(N(CC2CCCCC2)C(=O)NC)sc1/N=C/c1ccccc1
result: 32

query: Continue with CCNc1nnnn1CC
result: 106

query: Same for O=C(CBr)c1ccc(OC(=O)c2ccccc2)cc1
result: 102

query: Try NC(=Nc1nc(-c2ccccn2)cc2ccccc12)c1ccccn1 next.
result: 13.1

query: Note, next up: CCCCCCCCCCCC[n+]1ccc2ccccc2c1
result: -72.7

query: Entry Clc1ccc(-n2ncc3c(NCCCN4CCOCC4)ncnc32)cc1 please
result: 99.1

query: S=C1SCN(Cc2cccs2)CN1Cc1cccs1 , same question.
result: 100

query: Now the compound CCCCCCCCCCCC[n+]1ccccc1 (tested in a mixture with another compound)
result: -8.98

query: Next compound up: O=[N+]([O-])c1ccc(Oc2ccccc2Cl)c([N+](=O)[O-])c1
result: 84.9

query: One more compound: CCC[CH2][Sn]1([CH2]CCC)[O]C2C(CO)OC(n3ccc(N)nc3=O)C2[O]1 (stereo unspecified)
result: -89.2

query: Another compound: CCOC(=O)NC(/C=C/c1ccccc1)NC(=O)OCC
result: 101

query: Same question, COc1ccc2nc3cc(Cl)ccc3c(NCCCCCN3CCCCC3)c2c1 this time
result: -36.4

###

growth overview
Test system: MCF7 breast
ASSAY PROCEDURE: NCI-60 one-dose screen, 48 h (100 = growth as untreated, 0 = no growth, -100 = all killed)
COND: 10 µM unless noted
The panel holds about 83,000 compounds, 20% with a hit somewhere; the sample as a whole holds those more often.
Supply the numeric figure in %, leaving out any unit text.

Study these solved cases before continuing.
CCCOS(=O)(=O)c1ccccc1 ... 111
OCCOSCCO ... 97.7
CCOc1cc(F)c([N+](=O)[O-])cc1[N+](=O)[O-] ... 15.9
C/C=C/c1cc2c(c(=O)o1)C(=O)[C@@H](O)[C@H](C)O2 ... 26.1
O=[N+]([O-])c1ccc([I+]c2ccccc2)cc1 ... -29
CCc1cnc2ccccc2c1/C=C/c1ccc(N(C)C)cc1 ... 20
CC1CC(C)(C)OB(OC(C)CC(C)(C)OB2OC(C)CC(C)(C)O2)O1 (stereo not given) ... 96.6
O=C1/C(=C\c2ccc([N+](=O)[O-])cc2)CS(=O)(=O)C/C1=C/c1ccc([N+](=O)[O-])cc1 ... -58.5
CC(C)(C)c1ccc(CCO)cc1 ... 101
CCc1oc2ccccc2c1C(=O)c1cc(Br)c(O)c(Br)c1 ... 69.2

query: // query growth value for entry CC/C(=C(/CC)c1ccc(O)cc1)c1ccc(O)cc1
result: 26.2

query: Same thing, different molecule: O=C1C=CC(=O)N1c1ccccc1
result: 106

query: Lookup C/C(=N\NC(=S)N1CC2CCC(CC2)C1)c1ccccn1
result: 13.3

query: // query: CCOC(=O)c1[nH]c(C#N)c(C(=O)OCC)c1C
result: 103
